Where these numbers come from: ChEMBL document CHEMBL4689842

- System: HEK-293T
- assay text: Multiplex assay against HEK293T
- Assay type: toxicity, cell-based
- measurement conditions: human, 24 h, 10 µM, compound concentration 10 uM, replicate 1
Rule for this label: yes (1) means Population Healthy Nuclei (%) is less than 20%; no (0) means Population Healthy Nuclei (%) is at least 20%.

compound: c1ccc(-c2oc3ncnc(NC[C@@H]4CCCO4)c3c2-c2ccccc2)cc1
assigned label: yes (1)

compound: N#CCNC(=O)c1ccc(-c2ccnc(Nc3ccc(N4CCOCC4)cc3)n2)cc1 [MOMELOTINIB]
assigned label: no (0)

compound: Oc1cccc(-c2nc(N3CCOCC3)c3oc4ncccc4c3n2)c1 [PI-103]
assigned label: yes (1)

compound: Cl.NC[C@@H]1O[C@H](C23CC4CC(CC(C4)C2)C3)Cc2c1ccc(O)c2O
assigned label: yes (1)

compound: CC[C@@H]1C(=O)N(C)c2cnc(Nc3ccc(C(=O)NC4CCN(C)CC4)cc3OC)nc2N1C1CCCC1 [BI-2536]
assigned label: no (0)
